System: NCI-H187
assay: Cytotoxicity against human NCI-H187 cells by SRB assay
Type: functional, cell-based
reported.metric: IC50 (µM)
Numbers only, in µM.

Example compounds with recorded IC50:
1. COC(=O)[C@@]1(O)C[C@@H](C)O[C@H]1O[C@@H]1C[C@@H]2CC[C@@H]3[C@H](CC[C@]4(C)[C@@H](C5=CC(=O)OC5)CC[C@]34O)[C@@]2(C=O)C[C@H]1O : 14.4
2. C[C@@H]1C[C@H](O)[C@]2(O)O[C@@H]3C[C@@]4(C=O)[C@@H](CC[C@@H]5[C@@H]4CC[C@]4(C)[C@@H](C6=CC(=O)OC6)C[C@@H](O)[C@]54O)C[C@H]3O[C@@H]2O1 : 3.33

Next compound, IC50 to be filled in.
Tell me the measured IC50 of Cc1c2ccncc2c(C)c2c1[nH]c1ccccc12 , please.
2.23

// data source = ChEMBL document CHEMBL1158048
